biological target: BTK (Homo sapiens, UniProt Q06187); construct: purchased Invitrogen; assay: Z'-LYTE kinase inhibition assay (Invitrogen), BTK; format: biochemical; settings: compound at 100 nM; [ATP] = Km
Sequence (Q06187 whole entry): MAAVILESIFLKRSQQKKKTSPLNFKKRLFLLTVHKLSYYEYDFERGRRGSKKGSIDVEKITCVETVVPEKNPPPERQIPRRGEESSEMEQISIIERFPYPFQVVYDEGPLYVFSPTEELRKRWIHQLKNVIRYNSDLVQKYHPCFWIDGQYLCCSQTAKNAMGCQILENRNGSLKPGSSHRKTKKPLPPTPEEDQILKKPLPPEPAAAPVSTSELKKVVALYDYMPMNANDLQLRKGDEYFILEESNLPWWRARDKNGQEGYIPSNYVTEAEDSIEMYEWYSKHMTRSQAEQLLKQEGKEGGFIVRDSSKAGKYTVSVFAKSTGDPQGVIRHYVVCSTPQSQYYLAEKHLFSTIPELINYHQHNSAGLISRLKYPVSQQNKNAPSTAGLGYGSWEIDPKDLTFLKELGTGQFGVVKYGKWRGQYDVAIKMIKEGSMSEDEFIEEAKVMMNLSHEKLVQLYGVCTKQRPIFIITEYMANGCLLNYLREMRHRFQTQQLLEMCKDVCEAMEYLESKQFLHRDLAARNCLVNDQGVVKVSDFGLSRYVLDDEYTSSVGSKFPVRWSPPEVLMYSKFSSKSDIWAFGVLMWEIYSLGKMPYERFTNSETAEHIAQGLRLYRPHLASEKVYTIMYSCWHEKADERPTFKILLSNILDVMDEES
Overview of reported inhibition at 0.1 µM across a group of compounds:

Sample records with inhibition at 0.1 µM:
compound: C=CC(=O)Nc1cc(Nc2ncc3cccc(-c4cccc(Cl)c4)c3n2)ccc1N(C)CCN(C)C
system: BTK (Homo sapiens, UniProt Q06187)
inhibition at 0.1 µM: > 50%

compound: C=CC(=O)Nc1cc(Nc2ncc3cccc(-c4cccnc4)c3n2)ccc1N(C)CCN(C)C
system: BTK (Homo sapiens, UniProt Q06187)
inhibition at 0.1 µM: > 50%

query: What measured inhibition at 0.1 µM is associated with `C=CC(=O)Nc1cc(Nc2ncc3cccc(-c4ccccc4)c3n2)ccc1N(C)CCN(C)C` on BTK (Homo sapiens, UniProt Q06187)?
result: > 50%

query: Please tell me: inhibition at 0.1 µM of C=CC(=O)N1CCCC(n2cnc3cnc(Nc4ccc(N5CCN(CCO)CC5)cc4F)nc32)C1 (stereo not shown) , system BTK (Homo sapiens, UniProt Q06187)?
result: < 50%

====

target: BTK (Homo sapiens, UniProt Q06187); construct: purchased Invitrogen; assay: Z'-LYTE kinase inhibition assay (Invitrogen), BTK; type: biochemical; settings: compound at 100 nM; [ATP] = Km
readoutKind: inhibition at 0.1 µM

Some solved entries appear below for comparison.
compound: C=CC(=O)Nc1cc(Nc2ncc3cccc(-c4cccc(F)c4)c3n2)c(OC)cc1N(C)CCN(C)C [Example C018]
system: BTK (Homo sapiens, UniProt Q06187)
result: > 50%
--
compound: C=CC(=O)Nc1cccc(-n2cnc3cnc(Nc4ccc(N5CCN(CCO)CC5)c(F)c4)nc32)c1 [Example A020]
system: BTK (Homo sapiens, UniProt Q06187)
result: > 50%
--
compound: C=CC(=O)Nc1cc(Nc2ncc3cccc(-c4cccc(Cl)c4)c3n2)ccc1N1CCOCC1 [Example C016]
system: BTK (Homo sapiens, UniProt Q06187)
result: < 50%

query: Look up inhibition at 0.1 µM: C=CC(=O)Nc1cc(Nc2ncc3cccc(-c4cccc(F)c4)c3n2)ccc1N1CCC(N(C)C)C1 (stereo not shown) [Example C024]
result: > 50%

query: Can you share its inhibition at 0.1 µM? I mean this compound: C=CC(=O)Nc1cc(Nc2ncc3cccc(-c4ccncc4)c3n2)ccc1N(C)CCN(C)C [Example C007]
result: > 50%

====

inhibition at 0.1 µM values by entry
Biological target: EGFR (ErbB1) T790M L858R (Homo sapiens, UniProt P00533, L858R/T790M)
Construct: purchased Invitrogen
Sequence (P00533 25-1210 T790M/L858R): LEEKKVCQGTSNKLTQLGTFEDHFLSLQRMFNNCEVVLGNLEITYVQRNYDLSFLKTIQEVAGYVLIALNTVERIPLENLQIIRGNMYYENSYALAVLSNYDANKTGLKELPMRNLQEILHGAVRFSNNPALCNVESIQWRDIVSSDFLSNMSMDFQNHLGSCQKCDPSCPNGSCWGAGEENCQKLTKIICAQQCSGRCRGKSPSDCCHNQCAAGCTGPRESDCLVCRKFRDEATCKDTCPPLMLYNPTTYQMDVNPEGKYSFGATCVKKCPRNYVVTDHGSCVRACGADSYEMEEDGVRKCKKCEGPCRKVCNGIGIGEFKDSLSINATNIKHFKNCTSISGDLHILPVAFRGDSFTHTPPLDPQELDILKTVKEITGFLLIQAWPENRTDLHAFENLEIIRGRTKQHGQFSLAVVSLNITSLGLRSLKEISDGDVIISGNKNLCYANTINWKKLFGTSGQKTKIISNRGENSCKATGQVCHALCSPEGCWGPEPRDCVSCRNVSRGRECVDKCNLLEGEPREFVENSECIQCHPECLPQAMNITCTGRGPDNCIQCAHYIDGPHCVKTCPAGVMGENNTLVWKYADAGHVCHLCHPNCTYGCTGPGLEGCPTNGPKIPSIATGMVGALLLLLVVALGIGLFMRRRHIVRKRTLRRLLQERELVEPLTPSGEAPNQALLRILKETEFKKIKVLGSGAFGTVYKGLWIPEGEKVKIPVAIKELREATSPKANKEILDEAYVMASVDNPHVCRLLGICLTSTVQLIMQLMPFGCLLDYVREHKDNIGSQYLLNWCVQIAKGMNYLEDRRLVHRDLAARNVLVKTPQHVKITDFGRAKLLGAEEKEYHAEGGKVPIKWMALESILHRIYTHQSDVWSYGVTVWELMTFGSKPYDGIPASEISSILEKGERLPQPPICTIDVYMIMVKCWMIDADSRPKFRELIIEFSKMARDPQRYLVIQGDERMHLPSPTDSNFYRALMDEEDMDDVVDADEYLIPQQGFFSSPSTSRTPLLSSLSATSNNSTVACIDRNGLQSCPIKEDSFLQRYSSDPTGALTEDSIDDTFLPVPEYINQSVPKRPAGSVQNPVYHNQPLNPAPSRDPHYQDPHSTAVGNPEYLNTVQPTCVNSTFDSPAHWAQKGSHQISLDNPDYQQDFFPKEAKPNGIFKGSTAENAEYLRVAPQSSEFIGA
Assay: Z'-LYTE kinase inhibition assay (Invitrogen), EGFR L858R/T790M
Type: biochemical
Settings: compound at 100 nM; [ATP] = Km
Procedure: Inhibitory activities of compounds against BTK, EGFR and EGFR mutants (EGFR L858R/T790M) were measured by Invitrogen using Z′-LYTE® Method as briefly described in the following. Test Compounds are screened in 1% DMSO (final) in the well. For 10 point titrations, 3-fold serial dilutions are conducted from the starting concentration. All ATP Solutions are diluted to a 4× working concentration in Kinase Buffer (50 mM HEPES pH 7.5, 0.01% BRIJ-35, 10 mM MgCl2, 1 mM EGTA). […]

compound: C=CC(=O)Nc1cc(Nc2ncc3cccc(-c4ccccc4Cl)c3n2)ccc1N(C)CCN(C)C [Example C008]
readoutKind: inhibition at 0.1 µM
result: < 50%

query: Given the entry C=CC(=O)N1CCC(n2cnc3cnc(Nc4ccc(N5CCN(C)CC5)cc4F)nc32)C1 (centres unmarked) [Example A017] , report its measured inhibition at 0.1 µM.
result: < 50%

query: Which inhibition at 0.1 µM value is on record for C=CC(=O)Nc1cc(Nc2ncc3cccc(-c4cccc(Cl)c4)c3n2)ccc1N1CCOCC1 [Example C016] ?
result: < 50%

query: // lookup inhibition at 0.1 µM for C=CC(=O)N1CCCC(n2cnc3cnc(Nc4ccc(N5CCN(C)CC5)c(F)c4F)nc32)C1 (centres unmarked) [Example A023]
result: < 50%

query: Tell me the measured inhibition at 0.1 µM of C=CC(=O)Nc1cccc(-n2cnc3cnc(Nc4ccc(N5CCN(CCO)CC5)c(F)c4F)nc32)c1 [Example A014] , please.
result: < 50%

query: Which inhibition at 0.1 µM value is on record for C=CC(=O)Nc1cc(Nc2ncc3cccc(-c4cccc(F)c4)c3n2)c(OC)cc1N(C)CCN(C)C [Example C018] ?
result: > 50%

query: Query (compound): C=CC(=O)Nc1cc(Nc2ncc3cccc(-c4cccc(Cl)c4)c3n2)ccc1N1CCN(C)CC1 [Example C011] ; field requested: inhibition at 0.1 µM
result: < 50%

query: Report inhibition at 0.1 µM for C=CC(=O)N1CCCC(n2cnc3cnc(Nc4ccc(N5CCN(CCO)CC5)c(F)c4)nc32)C1 (centres unmarked) [Example A012] please.
result: < 50%

query: Suppose we examine the compound C=CC(=O)Nc1cc(Nc2ncc3cccc(-c4cccc(Cl)c4)c3n2)ccc1N(C)CCN(C)C [Example C005] ; what inhibition at 0.1 µM value has been reported?
result: > 50%

query: # lookup: inhibition at 0.1 µM of C=CC(=O)Nc1cc(Nc2ncc3cccc(-c4cccc(Cl)c4)c3n2)ccc1OCCOC [Example C015]
result: < 50%

query: What inhibition at 0.1 µM value was documented for this compound, C=CC(=O)N1CCC(n2cnc3cnc(Nc4ccc(N5CCN(CCO)CC5)c(F)c4F)nc32)C1 (centres unmarked) [Example A022] ?
result: < 50%

query: # lookup: inhibition at 0.1 µM of C=CC(=O)Nc1cccc(-n2cnc3cnc(Nc4ccc(N5CCN(C)CC5)cc4F)nc32)c1 [Example A021]
result: < 50%

query: Return reported inhibition at 0.1 µM; argument: C=CC(=O)Nc1cc(Nc2ncc3cccc(-c4ccccc4F)c3n2)ccc1N(C)CCN(C)C [Example C009]
result: < 50%

query: So what's the measured inhibition at 0.1 µM for this one? C=CC(=O)Nc1cccc(-n2cnc3cnc(Nc4ccc(N5CCN(C)CC5)c(F)c4F)nc32)c1 [Example A019]
result: < 50%

query: Can you share its inhibition at 0.1 µM? I mean this compound: C=CC(=O)N1CCC(n2cnc3cnc(Nc4ccc(N5CCN(C)CC5)c(F)c4F)nc32)C1 (centres unmarked) [Example A011]
result: < 50%

query: Item under review: C=CC(=O)Nc1cc(Nc2ncc3cccc(-c4cccc(Cl)c4)c3n2)ccc1OC1CCN(C)CC1 [Example C013] . Reported inhibition at 0.1 µM?
result: < 50%

query: Give the measured inhibition at 0.1 µM of C=CC(=O)Nc1cc(Nc2ncc3cccc(-c4cccc(Cl)c4)c3n2)c(OC)cc1N(C)CCN(C)C [Example C017] .
result: > 50%

query: Returns the measured inhibition at 0.1 µM for the input compound. Input: C=CC(=O)Nc1cc(Nc2ncc3cccc(-c4ccccc4Cl)c3n2)ccc1OCCN(C)C [Example C014]
result: < 50%

query: So what's the measured inhibition at 0.1 µM for this one? C=CC(=O)N1CCCC(n2cnc3cnc(Nc4ccc(N5CCN(CCO)CC5)c(F)c4F)nc32)C1 (centres unmarked) [Example A024]
result: < 50%

query: Which inhibition at 0.1 µM reading was recorded for the compound C=CC(=O)Nc1cc(Nc2ncc3cccc(-c4cccc(Cl)c4)c3n2)ccc1OCCN(C)C [Example C012] ?
result: < 50%

====

molecular target: BTK (Homo sapiens, UniProt Q06187); construct: purchased Invitrogen; experiment: Z'-LYTE kinase inhibition assay (Invitrogen), BTK; format: biochemical; conditions: compound at 100 nM; [ATP] = Km
readoutKind: inhibition at 0.1 µM

molecule: C=CC(=O)N1CCCC(n2cnc3cnc(Nc4ccc(N5CCN(CCO)CC5)cc4)nc32)C1 (centres unmarked) [Example A013]
inhibition at 0.1 µM: > 50%

molecule: C=CC(=O)Nc1cc(Nc2ncc3cccc(-c4cccc(Cl)c4)c3n2)c(OC)cc1N(C)CCN(C)C [Example C017]
inhibition at 0.1 µM: > 50%

molecule: C=CC(=O)Nc1cc(Nc2ncc3cccc(-c4cccc(Cl)c4)c3n2)ccc1N1CCN(C)CC1 [Example C011]
inhibition at 0.1 µM: > 50%

molecule: C=CC(=O)N1CCCC(n2cnc3cnc(Nc4ccc(N5CCN(C)CC5)c(F)c4F)nc32)C1 (centres unmarked) [Example A023]
inhibition at 0.1 µM: < 50%

Moving on to the next molecule.
query: Give BTK (Homo sapiens, UniProt Q06187) inhibition at 0.1 µM for C=CC(=O)Nc1cc(Nc2ncc3cccc(-c4cccc(F)c4)c3n2)ccc1N(C)CCN(C)C [Example C006]
result: > 50%

Ref: patent US10947201B2
